For each of the molecules below, state its pest or weed control at 250 g/ha.
Test system: Alopecurus myosuroides (ALOMY)
MEASUREMENT_NOTES: Post-emergence herbicidal activity, glasshouse pot test
Assay type: in vivo
COND: Alopecurus myosuroides, 312 h, rate 250 g/ha, evaluated after 13 days, glasshouse, read-out: Post-emergence activity ALOMY (100=total damage to plant; 0=no damage to plant)
Response body: numeric value in %, unit text excluded.

Which pest or weed control at 250 g/ha is reported for this molecule? CCc1ccc(Oc2ccc(Cl)cc2Cl)cc1C1=C(O)[C@H]2CC[C@H](C2)C1=O (single isomer, unassigned)
60

Which pest or weed control at 250 g/ha is reported for this molecule? Cc1ccc(Oc2ccc(Cl)cc2Cl)cc1C1=C(O)C(C)(C)OC(C)(C)C1=O
60

Which pest or weed control at 250 g/ha is reported for this molecule? CCc1ccc(Oc2ccc([N+](=O)[O-])c(Cl)c2)cc1C1=C(O)CC(C)(C)CC1=O
60
